Molecular target: c-Met kinase (His-tagged recombinant human Met (amino acids 974-end)) (Homo sapiens, UniProt P08581)
Construct: His-tagged recombinant human Met (amino acids 974-end); His
Sequence (P08581 956-1390): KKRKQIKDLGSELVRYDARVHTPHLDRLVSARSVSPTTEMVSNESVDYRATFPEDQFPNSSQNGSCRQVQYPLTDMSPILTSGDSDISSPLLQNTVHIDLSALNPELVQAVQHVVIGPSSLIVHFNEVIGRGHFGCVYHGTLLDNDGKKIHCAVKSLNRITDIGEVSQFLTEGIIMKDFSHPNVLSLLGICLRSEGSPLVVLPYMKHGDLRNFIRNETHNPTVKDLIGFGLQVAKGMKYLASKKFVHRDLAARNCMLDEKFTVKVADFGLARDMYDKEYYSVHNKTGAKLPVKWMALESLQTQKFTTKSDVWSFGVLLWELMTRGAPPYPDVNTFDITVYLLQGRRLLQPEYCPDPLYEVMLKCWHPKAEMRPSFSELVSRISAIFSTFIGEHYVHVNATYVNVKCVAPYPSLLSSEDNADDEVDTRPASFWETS
Test: c-Met Enzyme Activity Inhibition Assay (ELISA)
Type: biochemical
Conditions: 50 pM c-Met, 5 μM ATP, room temperature 20 min
attributeMeasured: IC50 for inhibiting c-Met kinase (mg/L)
Write the answer as a number in mg/L, unit excluded.

Worked cases, answers included:
C=CCn1c(=O)c(C(=O)Nc2ccc(Oc3ccnc4cc(OCCCN5CCCC5)c(OC)cc34)c(F)c2)nn(-c2ccc(Cl)cc2)c1=O :: 2.76
C=CCn1c(=O)c(C(=O)Nc2ccc(Oc3ccnc4cc(OCCCN5CCOCC5)c(OC)cc34)c(F)c2)nn(-c2ccc(Br)cc2)c1=O :: 1.8

Consider the additional molecule presented here.
Which measured IC50 for inhibiting c-Met kinase value corresponds to COc1cc2c(Oc3ccc(NC(=O)c4nn(-c5ccccc5)c(=O)n(C)c4=O)cc3F)ccnc2cc1OCCCN1CCN(C)CC1 ?
0.28
